Target: T1, recombinant rat MASP1 active protease (amino acids 302-704, C-terminal His Tag) (rat, UniProt Q8CHN8 302-704)
T1 sequence: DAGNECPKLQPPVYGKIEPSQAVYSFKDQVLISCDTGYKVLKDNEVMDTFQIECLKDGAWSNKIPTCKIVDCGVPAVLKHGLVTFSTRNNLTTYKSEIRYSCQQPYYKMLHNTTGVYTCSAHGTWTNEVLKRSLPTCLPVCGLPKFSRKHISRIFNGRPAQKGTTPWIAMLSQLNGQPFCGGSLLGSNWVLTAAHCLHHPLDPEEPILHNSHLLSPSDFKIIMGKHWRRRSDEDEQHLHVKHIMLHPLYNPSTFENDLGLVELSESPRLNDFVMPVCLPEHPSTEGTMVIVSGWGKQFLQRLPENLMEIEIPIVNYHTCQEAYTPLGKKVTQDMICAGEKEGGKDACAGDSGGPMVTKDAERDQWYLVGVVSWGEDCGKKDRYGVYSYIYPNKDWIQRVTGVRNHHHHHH
Experiment: cell-based or functional assay
Bridge positions count the residues as written; N and C are the ends. Square brackets hold non-standard residues; d marks the D form. Ends that are not written are not given here. Oic = O=C(O)[C@@H]1C[C@@H]2CCCC[C@@H]2N1; tBuAla = CC(C)(C)C[C@H](N)C(=O)O; Pen = CC(C)(S)[C@H](N)C(=O)O; Orn = NCCC[C@H](N)C(=O)O; PEG2 = NCCOCCOCCC(=O)O; Sar = CNCC(=O)O

| Binder | Display unit | rat MASP1 IC50 |
| --- | --- | --- |
| [Orn]ICSRS[tBuAla]PPICI-NH2 (disulfide 3-11; N-terminus assumed; SMILES CC[C@H](C)[C@H](NC(=O)[C@@H]1CSSC[C@H](NC(=O)[C@@H](NC(=O)[C@@H](N)CCCN)[C@@H](C)CC)C(=O)N[C@@H](CO)C(=O)N[C@@H](CCCNC(=N)N)C(=O)N[C@@H](CO)C(=O)N[C@@H](CC(C)(C)C)C(=O)N2CCC[C@H]2C(=O)N2CCC[C@H]2C(=O)N[C@@H]([C@@H](C)CC)C(=O)N1)C(N)=O) [Example 186: (Orn)-IC+SRS-((tBu)A)-PPIC+I-NH2] | nM | 380 |
| [Sar]ICSRS[tBuAla]PPI[Pen]IP-{PEG2-OH} (disulfide 3-11) [Example 498: ((N-Me)G)-IC+SRS-((tBu)A)-PPI-(Pen)+IP-(PEG1(10 atoms))-OH] | nM | 44 |
| AICSRS[tBuAla]P[Oic]I[Pen]IPD-OH (disulfide 3-11; N-terminus assumed; SMILES CC[C@H](C)[C@H](NC(=O)[C@H](C)N)C(=O)N[C@H]1CSSC(C)(C)[C@@H](C(=O)N[C@H](C(=O)N2CCC[C@H]2C(=O)N[C@@H](CC(=O)O)C(=O)O)[C@@H](C)CC)NC(=O)[C@H]([C@@H](C)CC)NC(=O)[C@@H]2C[C@@H]3CCCC[C@@H]3N2C(=O)[C@@H]2CCCN2C(=O)[C@H](CC(C)(C)C)NC(=O)[C@H](CO)NC(=O)[C@H](CCCNC(=N)N)NC(=O)[C@H](CO)NC1=O) [Example 14: AIC+SRS-((tBu)A)-P-(Oic)-I-(Pen)+IPD-OH] | nM | 23 |
| [Sar]ICSRSLPPICIPD-NH2 (disulfide 3-11; also: HCl salt) [Example 228: ((N-Me)G)-IC+SRSLPPIC+IPD-NH2 (HCl salt)] | nM | 260 |
